Data origin, for the record: patent EP4663199A1

# assayed-system: bispecific binding molecule comprising a first specific binding molecule (comprising SEQ ID NO:265 a)
# Sequence (chain, as listed by the source, chain 1 of 3): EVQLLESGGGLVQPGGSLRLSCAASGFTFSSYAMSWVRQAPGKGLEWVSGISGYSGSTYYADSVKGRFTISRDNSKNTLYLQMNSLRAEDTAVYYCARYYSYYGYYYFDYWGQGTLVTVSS
# Sequence (chain, as listed by the source, chain 2 of 3): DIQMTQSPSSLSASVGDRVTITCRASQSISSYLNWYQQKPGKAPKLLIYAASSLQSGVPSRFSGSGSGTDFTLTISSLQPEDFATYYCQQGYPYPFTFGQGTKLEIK
# Sequence (chain, as listed by the source, chain 3 of 3): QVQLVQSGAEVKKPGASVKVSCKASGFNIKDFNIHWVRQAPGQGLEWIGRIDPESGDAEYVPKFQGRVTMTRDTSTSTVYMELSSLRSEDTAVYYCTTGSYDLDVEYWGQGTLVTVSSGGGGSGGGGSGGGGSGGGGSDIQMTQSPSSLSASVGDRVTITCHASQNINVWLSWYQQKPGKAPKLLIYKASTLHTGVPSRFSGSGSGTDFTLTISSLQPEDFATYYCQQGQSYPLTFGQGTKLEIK
Overview of reported pKd across a group of binders:
Remember, pKd is on a log scale: it is -log10 of the molar concentration.

Below, each entry is followed by its recorded pKd result.
[
  {
    "binder": "FIGITELLKGGSAVGALKVPRNQDWLGVPRQL (modifications not checked) [peptide SEQ ID NO:238 (tag moiety …, GGS spacer, cargo peptide)]",
    "readout-value": 9.77
  },
  {
    "binder": "FIGITELLKGGSSSAESLKISQAVHAAHAEINEAGREVVGSAE (modifications not checked) [peptide SEQ ID NO:244 (tag moiety …, GGS spacer, cargo peptide)]",
    "readout-value": 10.72
  },
  {
    "binder": "FIGITELHKSSAESLKISQAVHAAHAEINEAGREVVGSAE (modifications not checked) [peptide SEQ ID NO:242 (tag moiety …, no spacer, cargo peptide)]",
    "readout-value": 10.72
  }
]

So for FIGITELHKGGSSSAESLKISQAVHAAHAEINEAGREVVGSAE (modifications not checked) [peptide SEQ ID NO:245 (tag moiety …, GGS spacer, cargo peptide)] , the logged pKd turned out to be 11.27
